These entries and their values trace back to patent US20130053430A1.

assay: Plasma glucose in huCETP transgenic mice (Example 5); format: in vivo; settings: 50 mg/kg i.p. twice per week, week 3
e = 2'-O-(2-methoxyethyl) (MOE); d = 2'-deoxy (DNA)
READOUT: Glucose levels (mg/dL)
The reply should contain only the number, in mg/dL.

Reported Glucose levels for ISIS 349512: 5-10-5 MOE gapmer TTGCCTTCTGCTACAAGCCC (sugars from the 5' end e5 d10 e5, backbone and methylation of C not given here) was 267

Reported Glucose levels for ISIS 349517: 5-10-5 MOE gapmer CAGCACTTTAATGCCAGTGG (sugars from the 5' end e5 d10 e5, backbone and methylation of C not given here) was 333

Reported Glucose levels for ISIS 349515: 5-10-5 MOE gapmer AACTTCCACCACGCTGGAGG (sugars from the 5' end e5 d10 e5, backbone and methylation of C not given here) was 275

Reported Glucose levels for ISIS 349511: 5-10-5 MOE gapmer CCCGACCTCCTTGGAGACTT (sugars from the 5' end e5 d10 e5, backbone and methylation of C not given here) was 286
